System: OVCAR-8 ovarian
Assay: NCI-60 one-dose screen, 48 h (100 = growth as untreated, 0 = no growth, -100 = all killed)
Conditions: 10 µM unless noted
About 83,000 compounds went through this panel and 20% of them were active in at least one assay; those are over-represented in the sample as a whole.
Use 90% as the dividing line for growth, with the line itself on the true (1) side and lower values as false (0).

// query growth >= 90% for COc1cccc(CCC(=O)c2cc3c(N)c(C(=O)Nc4cccc(Cl)c4C)sc3nc2C)c1 ?
// result false (0)

// query growth >= 90% for C=C(C)[C@@H]1CC[C@]2(CO)CC[C@]3(C)[C@H](CC[C@@H]4[C@@]5(C)CCCNC(C)(C)[C@@H]5CC[C@]43C)[C@@H]12 ?
// result false (0)

// query growth >= 90% for Nc1nnc2cc(Cl)ccc2n1 ?
// result true (1)

// query growth >= 90% for Nc1c(C(=O)Nc2ccc(Cl)cc2)cc(-c2nc3ccccc3s2)c(=O)n1NS(=O)(=O)c1ccc(Cl)cc1 ?
// result true (1)

###

Test system: HT29 colon
Test: NCI-60 one-dose screen, 48 h
Details: 10 µM unless noted
Compounds without any hit were thinned out: in the full panel of roughly 83,000, 20% have a hit. Activity calls are given as the source filed them. The calls were made as follows: active = growth percent below 10; inactive = the rest.
I would appreciate it if you answered using one of these outcomes: true for active, false for inactive

// query Check the results log: what was the call for CC(C)(C)CC(C)(C)Nc1c(-c2ccc3c(c2)OCO3)nc2cnccn12 ?
// result false

// query Check the results log: what was the call for COc1ccc2c(c1)c(CC(=O)NCCOCCOCC(=O)Nc1ccc(OC)c(C(N)=O)c1O)c(C)n2C(=O)c1ccc(Cl)cc1 ?
// result false

// query Check the results log: what was the call for O=c1[nH]c2c(s1)CCCC2CN1CCCCC1 (stereo unspecified) ?
// result false

// query Check the results log: what was the call for C#Cc1cccc(NC(=O)Nc2cccc(N=C=S)c2)c1 ?
// result false

// query Check the results log: what was the call for O=C(Cc1ccc(/C=C/C(=O)c2ncc[nH]2)cc1)Nc1ccc(C(F)(F)F)cc1 ?
// result true

// query Check the results log: what was the call for COc1ccccc1-c1c(-c2ccc(Cl)cc2)c2cc3c(cc2[nH]c1=O)OCCO3 ?
// result false

// query Check the results log: what was the call for COc1ccc(-c2cnc(N)nc2-c2ccc(OC)cc2O)cc1 ?
// result false

// query Check the results log: what was the call for Cc1ccc(C2CC(c3cccc(Nc4ccncc4)c3)=NN2c2ccc(Cl)cc2)cc1 (stereo unspecified) ?
// result true

// query Check the results log: what was the call for Nc1nnc(C(=O)c2cnc3n(c2=O)CCCCC3)s1 ?
// result false

// query Check the results log: what was the call for N#CSCC1CC(O)(c2ccccc2)C(c2ccccc2)C(c2ccc(F)cc2)O1 (stereo unspecified) ?
// result true

// query Check the results log: what was the call for CSc1nnc2c(=O)n(C)c(=O)n(C)c2n1 ?
// result false

// query Check the results log: what was the call for CN1CCN(c2ccc(NC3=C(Cl)C(=O)c4ncccc4C3=O)cc2C#N)CC1 ?
// result false

// query Check the results log: what was the call for COc1ccc(C2CC(c3cccc(Nc4ccncc4)c3)=NN2c2ccccc2)cc1 (stereo unspecified) ?
// result true

// query Check the results log: what was the call for COc1ccc(C(=O)c2cc3c(N)c(C(=O)Nc4cccc(Cl)c4)sc3nc2C)cc1 ?
// result true

// query Check the results log: what was the call for c1ccc(N2N=C(c3cccc(Nc4ccncc4)c3)CC2c2ccc3c(c2)OCO3)cc1 (stereo unspecified) ?
// result true

// query Check the results log: what was the call for CC1(c2ccccc2)NC(=O)N(CC(=O)Nc2cccc(I)c2)C1=O (stereo unspecified) ?
// result false

// query Check the results log: what was the call for COc1cccc(CCC(=O)c2cc3c(N)c(C(=O)Nc4ccccc4)sc3nc2C)c1 ?
// result false

// query Check the results log: what was the call for COc1ccc(C(O)c2cc3c(N)c(C(=O)Nc4cccc(Br)c4C)sc3nc2C)cc1 (stereo unspecified) ?
// result true

// query Check the results log: what was the call for Brc1ccc(C2CC(c3cccc(Nc4ccncc4)c3)=NN2c2ccccc2)cc1 (stereo unspecified) ?
// result true

// query Check the results log: what was the call for COc1ccc(CC(C)=C(c2ccc(OCCN(C)C)cc2)c2ccc(OCCN(C)C)cc2)cc1 ?
// result false

// query Check the results log: what was the call for CCCCOc1ccc(/C=N/Nc2cc(C)nc3ccc(Cl)cc23)cc1 ?
// result true

###

Assign growth to each entry below.
Test system: CAKI-1 renal
Test: NCI-60 one-dose screen, 48 h (100 = growth as untreated, 0 = no growth, -100 = all killed)
Conditions: 10 µM unless noted
The panel holds about 83,000 compounds, 20% with a hit somewhere; the sample as a whole holds those more often. The source made the active and inactive calls. The calls were made as follows: active = growth percent below 10; inactive = the rest.

// query Which measured growth value corresponds to CNC(=O)Nc1ccc(-c2nc(N3CCOCC3)nc3c2cnn3C2CCOCC2)cc1 ?
// result -19.3% (active)

// query Which measured growth value corresponds to CC(=O)Nc1ccc(S(=O)(=O)NC2CCCCC2)cc1 ?
// result 98.5% (inactive)

// query Which measured growth value corresponds to Cc1cccc(Oc2ccc(Nc3ncnc4ccc(NC(=O)CNCCO)cc34)cc2Cl)c1 ?
// result 52.9% (inactive)

// query Which measured growth value corresponds to c1ccc(CCSc2ncnc3nc[nH]c23)cc1 ?
// result 86.7% (inactive)

// query Which measured growth value corresponds to NNC(=O)/C(=C\c1ccc([N+](=O)[O-])cc1)CC(=O)c1ccc(Cl)c(Cl)c1 ?
// result 66.8% (inactive)

// query Which measured growth value corresponds to O=C(Nc1ccc(Cl)cc1)Nc1ccc(Cl)c(Cl)c1 ?
// result -1.31% (active)

###

Test system: SF-268 CNS
Assay: NCI-60 one-dose screen, 48 h
Conditions: 10 µM unless noted
The panel holds about 83,000 compounds, 20% with a hit somewhere; the sample as a whole holds those more often. Calls of active or inactive are those of the source. The calls were made as follows: active = growth percent below 10; inactive = the rest.
I would appreciate it if you answered using one of these outcomes: active, inactive

// query Check the results log: what was the call for COc1ccc(Cn2nc(-c3cc(OC)c(OC)c(OC)c3)c3c2CCc2cnoc2-3)cc1OC ?
// result inactive

// query Check the results log: what was the call for Nc1nc(N)nc(NCc2ccccc2)n1 ?
// result inactive

// query Check the results log: what was the call for CC(C)NC(=O)N1C(=O)CCC1NNC(=O)c1ccc([N+](=O)[O-])cc1 (centres undefined) ?
// result inactive

// query Check the results log: what was the call for O=C(CN1CCOCC1)Nc1ccc2ncnc(Nc3ccc(OCc4cccc(F)c4)c(Cl)c3)c2c1 ?
// result inactive

// query Check the results log: what was the call for CC(=O)c1c(-c2ccc(OC(F)(F)F)cc2)nc2ccccn12 ?
// result inactive

// query Check the results log: what was the call for CCCCCCC/C=C/[C@H]1O[C@]2(O)C(=O)C=C3C[C@@H](O[C@@H]4O[C@H](CO)[C@@H](O)C(O)[C@@H]4O)C[C@@H]3[C@H]2C=C1C (some centres undefined) ?
// result inactive

// query Check the results log: what was the call for O=C(Nc1cccc(Cl)c1)Oc1c(Br)c(Br)c(Br)c(Br)c1Br ?
// result inactive

// query Check the results log: what was the call for COc1ccc(C(=O)c2cc3c(N)c(C(=O)Nc4cccc(Br)c4C)sc3nc2C)cc1 ?
// result inactive

// query Check the results log: what was the call for COc1ccc(/C=N/C2=C(C#N)C(c3ccccc3[N+](=O)[O-])c3ccc4ccccc4c3O2)cc1 (centres undefined) ?
// result inactive

// query Check the results log: what was the call for COc1ccc(-c2nc(SCC(C)C)nc(N/N=C(/C)c3ccc(OC)c(OC)c3)c2C#N)cc1 ?
// result inactive

// query Check the results log: what was the call for Cc1nc2sc(C(=O)Nc3ccccc3)c(N)c2cc1C(=O)c1ccc(C(F)(F)F)cc1 ?
// result inactive

// query Check the results log: what was the call for CCOC(=O)c1cnc2c(cnn2CC)c1NN=C(C)C ?
// result inactive

// query Check the results log: what was the call for O=C(O)CCCCCCCCCCCCCCC(=O)O ?
// result inactive

// query Check the results log: what was the call for COc1cccc(C(Cc2ccccc2)Nc2ccccc2)c1OC (centres undefined) ?
// result inactive

// query Check the results log: what was the call for Cc1cc(NC(=O)c2cnc(N3CCN(CCOCCOCCOCCOCCC(=O)N[C@H](C(=O)N4C[C@H](O)C[C@H]4C(=O)N[C@@H](C)c4ccc(-c5scnc5C)cc4)C(C)(C)C)CC3)cn2)c2ncccc2c1 ?
// result active

// query Check the results log: what was the call for C1=C2CNCC3=Cc4ccc5ccccc5c4OC23Oc2c1ccc1ccccc21 ?
// result inactive

// query Check the results log: what was the call for O=C(CCN1CCCC1)Nc1ccc2c(Nc3ccccc3)c3ccccc3nc2c1 ?
// result inactive

// query Check the results log: what was the call for O=C1/C(=C/c2ccc(O)cc2)COc2ccc(-c3ccccc3)cc21 ?
// result inactive

// query Check the results log: what was the call for COc1ccc(C(=O)c2cc(C)c(OC)c(C)c2)c(OC)c1N(C(=O)C(Cl)Cl)C(=O)C(Cl)Cl ?
// result inactive

// query Check the results log: what was the call for Fc1cc(C2=NNC(c3ccc[nH]3)C2)ccc1-n1ccc(C(F)(F)F)n1 (centres undefined) ?
// result inactive

// query Check the results log: what was the call for CCCCCCCCOC(=O)c1ccc(O)c(OC)c1 ?
// result inactive

// query Check the results log: what was the call for COc1ccc2nc(N=Nc3c(O)ccc4ccccc34)sc2c1 ?
// result inactive

// query Check the results log: what was the call for CCOC(=O)c1c(C)nc2c(c1N)C(=O)C(=O)N2Cc1ccc(C(F)(F)F)cc1 ?
// result inactive

// query Check the results log: what was the call for O=S(=O)(NCCNc1nccc(-c2c(-c3ccc(F)c(O)c3)nc3sccn23)n1)c1ccccc1 ?
// result inactive

// query Check the results log: what was the call for FC(F)(F)c1cccc(Nc2ccccc2)c1 ?
// result inactive

// query Check the results log: what was the call for C=CCn1c(SCC(=O)Nc2ccc(C(=O)/C=C/c3cc(OC)c(OC)c(OC)c3)cc2)nnc1-c1cc(OC)c(OC)c(OC)c1 ?
// result inactive

// query Check the results log: what was the call for CCOC(=O)c1c(O)cc(-c2ccccc2)cc1-c1sc(N(C)Cc2ccccc2)nc1Cl ?
// result inactive

// query Check the results log: what was the call for NC(=S)N/N=C(/c1ccccc1)c1ccccc1N ?
// result inactive

// query Check the results log: what was the call for Cc1cccc(Oc2ccc(Nc3ncnc4ccc(NC(=O)CNCCO)cc34)cc2Cl)c1 ?
// result inactive

// query Check the results log: what was the call for COc1cc(Nc2cc(O)c3c(=O)cc(-c4ccccc4)oc3c2)cc(OC)c1 ?
// result inactive

// query Check the results log: what was the call for N#C/C(=C\c1ccc(Br)cc1)n1nnc2cccc(F)c21 ?
// result inactive

// query Check the results log: what was the call for COc1ccc(/C(C)=N/NC(=O)CSc2nc3ccccc3c(=O)n2Cc2ccc(S(N)(=O)=O)cc2)c(OC)c1 ?
// result inactive

// query Check the results log: what was the call for Cc1c([N+](=O)[O-])cc(C(C)(C)C)cc1[N+](=O)[O-] ?
// result inactive

// query Check the results log: what was the call for COc1ccccc1C(C[N+](=O)[O-])c1c(-c2ccccc2)[nH]c2cc(C)ccc12 (centres undefined) ?
// result inactive

// query Check the results log: what was the call for CS(=O)(=O)c1ccc(-c2cc(-c3nnc(SCC(=O)Nc4ccc(C(=O)/C=C/c5ccc(Cl)cc5)cc4)n3-c3ccccc3)c3ccccc3n2)cc1 ?
// result inactive

// query Check the results log: what was the call for c1ccc(-c2nn(-c3ccccc3)[n+](-c3cccc4ccccc34)n2)cc1 ?
// result inactive

// query Check the results log: what was the call for COc1ccc(C(=O)c2cc3c(N)c(C(=O)Nc4cccc5ccccc45)sc3nc2C)cc1 ?
// result inactive

// query Check the results log: what was the call for O=C(c1ccccc1)N1N=C(c2ccc(-n3ccc(C(F)(F)F)n3)cc2)CC1c1ccc[nH]1 (centres undefined) ?
// result inactive

// query Check the results log: what was the call for COc1nccnn1 ?
// result inactive
